Values were extracted from the Kinase Knowledgebase extract (Sharma et al. 2016).

test.target: PIK3CA (human)
pIC50: −log10 of the molar value.
measure: pIC50

{"compound": "Cc1cccc(NC(C)c2cc(C)cn3c(=O)cc(N4CCOCC4)nc23)c1 (configuration not stated)", "pIC50": "< 5.30"}

// next entry
query: Specify the recorded pIC50 for Cc1cc(C(C)Nc2cccc(Cl)c2)c2nc(N3CCOCC3)cc(=O)n2c1 (configuration not stated) , system: PIK3CA (human).
result: < 5.30

====

test.target: PIK3CB (Human)
procedure.summary: Inhibition of CD9 Antibody Induced Platelet Aggregation
Measured IC50, listed per entry for reference.
Report the value in nM with no unit label.

{"compound": "Cc1cc(C(C)Nc2ccccc2)c2oc(-c3ccncc3)cc(=O)c2c1 (configuration not stated)", "unit.name": "nM", "IC50": 100}

Please examine the following record next.
query: For CC(Nc1ccccc1N)c1cccc2c(=O)cc(-c3ccncc3)oc12 (configuration not stated) , write its IC50.
result: 200
